Assay: Human HepG2 cell viability assay in 384 well format
Assay type: toxicity, cell-based
Design: dose 125 nL, time 70.5 hour; concentration not given beside the values
Conditions: HepG2 cells, read-out: Inhibition

{"MOLECULE": "CCCN1CCCn2c(nc(CNC(=O)N3CCCC3)cc2=O)C1", "cytotoxicity at 70.5 h (%)": -9.21}
{"MOLECULE": "O=C1CC2(CCCCN2C(=O)c2ccccc2)CN1CC1CC1 (centres undefined)", "cytotoxicity at 70.5 h (%)": 4.75}
{"MOLECULE": "COCC(=O)NCC1CCCN(Cc2cc3ccccc3[nH]2)C1 (centres undefined)", "cytotoxicity at 70.5 h (%)": -13.5}
{"MOLECULE": "Cc1noc(CN(C)Cc2cnc(N3CCOCC3)nc2)n1", "cytotoxicity at 70.5 h (%)": -6.57}

====

Quick reference for cytotoxicity at 70.5 h among some compounds
Assay: Human HepG2 cell viability assay in 384 well format
Type: toxicity, cell-based
Set-up: dose 125 nL, time 70.5 hour; concentration not given beside the values
Conditions: HepG2 cells, read-out: Inhibition

{"COMPOUND": "Cc1noc(CSc2ccc(C(F)(F)F)cn2)n1", "cytotoxicity at 70.5 h / %": -6.64}
{"COMPOUND": "Cc1nnc(N2CCC(CNC(=O)OC(C)(C)C)CC2)c(C#N)c1C", "cytotoxicity at 70.5 h / %": 1.28}
{"COMPOUND": "O=C(O)CCCC(=O)Nc1cnn(COc2ccc(F)cc2Cl)c1", "cytotoxicity at 70.5 h / %": 7.18}
{"COMPOUND": "O=C(NCCn1cc(Cl)cn1)C1CCN(C(=O)C2CC2)CC1", "cytotoxicity at 70.5 h / %": 2.7}
{"COMPOUND": "CCc1ncc2c(n1)CN(C(C)C(=O)Nc1ccc(Cl)cn1)CC2 (centres undefined)", "cytotoxicity at 70.5 h / %": 20.7}
{"COMPOUND": "Cc1cnc(NC(=O)c2cccc(CN(C)Cc3snnc3C)c2)s1", "cytotoxicity at 70.5 h / %": -4.01}
{"COMPOUND": "Cn1c(=O)oc2ccc(NC(=O)N3CCOCC3)cc21", "cytotoxicity at 70.5 h / %": 31.6}
{"COMPOUND": "O=C(NC1CCc2ccccc2C1)C1CCN(Cc2ccco2)CC1 (centres undefined)", "cytotoxicity at 70.5 h / %": -2.67}
{"COMPOUND": "CS(=O)(=O)Nc1cccc(CNC(=O)CCc2ccsc2)c1", "cytotoxicity at 70.5 h / %": -1.95}
{"COMPOUND": "CNc1ncc(-c2ccc(NC(=O)[C@@H]3CCCCN3)cc2)cn1", "cytotoxicity at 70.5 h / %": -1.05}
{"COMPOUND": "Cc1ccc(CN2C[C@H]3CC[C@@H]2CN(Cc2[nH]cnc2C)C3)o1", "cytotoxicity at 70.5 h / %": -0.228}
{"COMPOUND": "Cn1nc(-c2ccccc2)c(Br)c1C(=O)O", "cytotoxicity at 70.5 h / %": -23.2}
{"COMPOUND": "O=C(c1cccs1)N1CCc2c(nc(N3CCCCC3)[nH]c2=O)C1", "cytotoxicity at 70.5 h / %": -0.672}
{"COMPOUND": "Cc1nn(C)c(C)c1-c1cc(-c2cnn(C)c2C2CC2)c(C#N)c(N)n1", "cytotoxicity at 70.5 h / %": -12.7}
{"COMPOUND": "Cc1cnn(CCNCc2ccc(OCC(N)=O)cc2)c1", "cytotoxicity at 70.5 h / %": -6.65}
{"COMPOUND": "CS(=O)(=O)NCc1n[nH]c2c1CCN(C(=O)c1ccsc1)C2", "cytotoxicity at 70.5 h / %": 30.1}
{"COMPOUND": "Cc1ccc(-c2ccnc(N[C@H]3COC[C@@H]3N3CCCC3)n2)c(C)n1", "cytotoxicity at 70.5 h / %": -10.9}
{"COMPOUND": "CC(C)c1n[nH]c(C2CN(C(=O)CCn3ccccc3=O)CCO2)n1 (centres undefined)", "cytotoxicity at 70.5 h / %": -2.51}
{"COMPOUND": "O=C(NC1CCC(N2C(=O)CCC2=O)CC1)c1c[nH]c2ccccc12 (centres undefined)", "cytotoxicity at 70.5 h / %": 10.8}
{"COMPOUND": "COc1ccc(C2SC(C)=Nc3c2c(=O)[nH]n3C2CCCC2)cc1O (centres undefined)", "cytotoxicity at 70.5 h / %": -18.9}
{"COMPOUND": "CC(C)CNC(=O)N1C[C@H]2CC[C@@]3(N=C(c4ccccc4)NC3=O)[C@H]2C1", "cytotoxicity at 70.5 h / %": -0.00686}
{"COMPOUND": "COc1cccc(CNc2c(O)c(=O)c2=O)c1", "cytotoxicity at 70.5 h / %": -20.2}
{"COMPOUND": "Cc1cccc2c1OCCCC2NCc1nnc2n1CCCCC2 (centres undefined)", "cytotoxicity at 70.5 h / %": -7.8}
{"COMPOUND": "CCc1nsc(N2CCCN(CC(=O)N(C)C3CC3)CC2)n1", "cytotoxicity at 70.5 h / %": -6.24}
{"COMPOUND": "C=C(C)COc1ccccc1C(=O)N1CCC(C(=O)NCC)C1 (centres undefined)", "cytotoxicity at 70.5 h / %": -0.0263}
{"COMPOUND": "CCc1noc(C)c1-c1nc(Cc2cccs2)nn1C1CCN(C)CC1", "cytotoxicity at 70.5 h / %": -1.49}
{"COMPOUND": "NCC(=O)N1CCCC1c1nccnc1Nc1ncccn1 (centres undefined)", "cytotoxicity at 70.5 h / %": -1.95}
{"COMPOUND": "COc1cccc(CCC2CCCN(C(=O)c3ccc(OC)o3)C2)c1 (centres undefined)", "cytotoxicity at 70.5 h / %": -3.25}
{"COMPOUND": "Clc1snnc1CN(Cc1cccs1)C1CC1", "cytotoxicity at 70.5 h / %": -5.36}
{"COMPOUND": "Cc1noc(CN2CCN(C(=O)c3ccccn3)CC2)n1", "cytotoxicity at 70.5 h / %": -8.75}
{"COMPOUND": "O=C(Cc1cccnc1)N1CCC2(CC1)CCN(C1CCOCC1)C2", "cytotoxicity at 70.5 h / %": -3.79}
{"COMPOUND": "CCOc1ccc2[nH]c(=O)c(CN(C)CCc3cn[nH]c3)cc2c1", "cytotoxicity at 70.5 h / %": 4.91}
{"COMPOUND": "O=C(c1cocn1)N1C[C@@H]2CN(Cc3ccco3)CCO[C@@H]2C1", "cytotoxicity at 70.5 h / %": -9.1}
{"COMPOUND": "COc1ccccc1NC(=O)NCC(O)c1ccc(F)cc1F (centres undefined)", "cytotoxicity at 70.5 h / %": 17.3}

The reported measurements were obtained from ChEMBL document CHEMBL3507680.
